Value source: patent US20100061928A1

Tested on: grafted B16 F0 murine melanoma tumour
methodSummary: Biodistribution of the ^125I-labelled molecules in the melanoma-bearing mouse (autoradiography of whole-body sections)
experimentalContext: liver; 1 H
Where a name gives a salt, the structure may show the parent alone.
parameter: Biodistribution, Mean, liver

// known answers, use as guide
compound: CCCN(CCC)CCCCNC(=O)c1ccc2cc(I)ccc2n1 [compound 49, dihydrochloride]
valueObserved: 13.79

compound: CCN(CC)CCNC(=O)c1c[nH]c2ccc(I)cc2c1=O [compound 35, dihydrochloride]
valueObserved: 5.16

compound: CCN(CC)CCNC(=O)c1cccc2cc3cc(I)ccc3nc12 [compound 111, dihydrochloride]
valueObserved: 5.38

Could you now consider this next compound?
Lookup result for CCN(CC)CCNC(=O)c1cc2c(I)cccc2cn1 [compound 39, dihydrochloride] ; measured Biodistribution, Mean, liver: 3.86
